# method: Inhibition of CK1gamma (unknown origin)
# Set-up: species or system Homo sapiens
readout: IC50 (nM)
Number only, in nM; omit the unit.

What does the data say about its IC50? Entry: `N=C1NC(=O)C(=C2CCNC(=O)c3[nH]c(Br)cc32)N1`
30

---

# System: THP-1
# method: Antiinflammatory activity in LPS induced human THP-1 cells assessed as inhibition of TNF-alpha production by EIA assay
# Format: functional, cell-based
readout: IC50 (µM)
Number only, in µM; omit the unit.

What does the data say about its IC50? Entry: S=C(S)N1CCCC1 [PYRROLIDINE DITHIOCARBAMATE]
6.11
